// provenance: PubChem BioAssay (NCI)

Test: NCI Yeast Anticancer Drug Screen. Data for the wt1 strain (AID 149);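 note: 0% = growth of vehicle-treated wt1 cultures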
Settings: S. cerevisiae wt1 strain (SPY 50644) growth inhibition; at 11.0 µM; hits give high values
About 79,000 compounds went through this panel and 15% of them were active in at least one assay; those are over-represented in the sample as a whole.
Reported values of growth inhibition for individual entries
Unit % implied. Number only.

Some compounds with recorded growth inhibition:
| COMPOUND | VALUE_REPORTED |
| --- | --- |
| CCC(C)(C)c1ccc(Oc2cccc(C(=O)O)c2)cc1 | 12 |
| O=C(O)C1CC(c2ccccc2)=NN1c1ccccc1 (centres undefined) | -50 |
| N/C(=N/N=C/c1cc(Br)cc(Br)c1O)NO | -13 |

Query block: Report growth inhibition for `CCOC(=N)c1ccc(O)c(OC)c1` please.
Result block: -3

====

Test: NCI Yeast Anticancer Drug Screen. Data for the rad14 strain (AID 159);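 note: 0% = growth of vehicle-treated control cultures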
Conditions: S. cerevisiae rad14 strain growth inhibition; at 33.0 µM; hits give high values
Method: Growth inhibition of yeast strains with defined genetic alterations is measured as a screen for potential anti-cancer activity. Selected strains with alterations in DNA damage repair or cell cycle control were exposed to compounds and growth inhibition was measured relative to vehicle treated controls. The strain used in this assay is rad14
Compounds without any hit were thinned out: in the full panel of roughly 79,000, 15% have a hit.
YES means recorded growth inhibition is 10% or above; NO means it is below 10%.

| COMPOUND | CLASS |
| --- | --- |
| COc1ccc([N+](=O)[O-])c2c(NCCCN(C)C)c3ccccc3nc12 | YES |

Query block: Form field: growth inhibition at least 10%? Entry: COC(=O)CC1(O)C(/C=C/c2ccccc2)C(C(=O)OC)C(=O)C(C(=O)OC)C1C(=O)OC (stereo unspecified)
Result block: NO

Query block: Please check the record `Cc1cc(N(CCOS(C)(=O)=O)CCOS(C)(=O)=O)ccc1C=Nc1ccc(-c2nc(Cc3ccccc3)sc2C)cc1` and state if its growth inhibition is at or above 10%.
Result block: YES

Query block: Given the entry `O/N=C\c1c(O)ccc2ccccc12` , answer whether its growth inhibition meets or surpasses 10%.
Result block: YES

Query block: Item Oc1ccc2c(c1)C(O)CCCC2 (stereo unspecified) with growth inhibition of 10% or above?
Result block: YES

Query block: Determine whether this compound has growth inhibition no lower than 10%: COc1ccc(C(NCCNC(c2ccc(OC)c(OC)c2)c2cc3c(cc2O)OCO3)c2cc3c(cc2O)OCO3)cc1OC (stereo unspecified)
Result block: YES

====

Experiment: NCI Yeast Anticancer Drug Screen. Data for the bub3 strain (AID 167)
Conditions: S. cerevisiae bub3 mutant strain, at 100.0 µM, hits give high values
This is part of a sample that, as a whole, favours compounds with a hit. Of some 79,000 tested, about 15% had one in any assay.
The reader will find reported growth inhibition values listed item by item below.
Provide the reading as a plain figure in %.

Example entries begin here.
| MOLECULE | growth inhibition / % |
| --- | --- |
| O=C1C=C(c2ccccc2)OC1(c1ccccc1)N1CCOCC1 (stereo not given) | 98 |
| COC(=O)C1(C)CCc2c(ccc3ccccc23)C1=O (stereo not given) | 75 |
| c1ccc2c(OCC3CO3)cccc2c1 (stereo not given) | 21 |

Query block: So what's the measured growth inhibition for this one? `CC12C(=O)OC(=O)C(c3ccccc31)c1ccccc12`
Result block: 2

Query block: Entry `C=C(C(=C)n1nnc(C(=O)OC)c1C(=O)OC)n1nnc(C(=O)OC)c1C(=O)OC` : reported growth inhibition = ?
Result block: -4

====

Test: NCI Yeast Anticancer Drug Screen. Data for the rad50 strain (AID 155);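 note: 0% = growth of vehicle-only cultures of the same strain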
Settings: S. cerevisiae rad50 strain growth inhibition; at 33.0 µM; hits give high values
About 79,000 compounds went through this panel and 15% of them were active in at least one assay; those are over-represented in the sample as a whole.
PROPERTY: growth inhibition (%)
Numbers only here, please. The scale is %.

These solved cases illustrate the format of a correct answer.
| CHEMICAL_STRING | U | VALUE_REPORTED |
| --- | --- | --- |
| CCCCOP(=O)(CCCP(=O)(OCCCC)OCCCC)OCCCC | % | 7 |
| NNC(=O)CCc1cc2ccccc2c2ccccc12 | % | 38 |

Query block: Recorded growth inhibition of `O=C1NC(SSC2=NNC3(C(=O)N2)c2ccccc2-c2ccccc23)=NNC12c1ccccc1-c1ccccc12` , please.
Result block: 18

====

Experiment: NCI Yeast Anticancer Drug Screen. Data for the rad50EPP+ strain (AID 151);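 note: 0% = growth of vehicle-treated control cultures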
Details: S. cerevisiae rad50 mutant strain, at 100.0 µM, hits give high values
The panel holds about 79,000 compounds, 15% with a hit somewhere; the sample as a whole holds those more often.
PROPERTY: growth inhibition (%)
# output: bare number, implied unit %

Previously resolved entries follow.
| MOLECULE | growth inhibition (%) |
| --- | --- |
| Cc1ccccc1N=C(NO)c1ccccc1 | 67 |
| COc1cc(C2c3cc4c(cc3OC(OC(C)=O)C2C)OCO4)cc(OC)c1OC (centres undefined) | 5 |
| O=C(/C=C/c1cc(Cl)cc(Cl)c1O)c1cccc(O)c1 | 97 |

Query block: Requested read-out: growth inhibition. Entry: `O=c1[nH]c(-c2ccccc2)nc2c1sc1nc3ccccc3n12`
Result block: -31

Query block: // query growth inhibition value for entry O=C(O)C1CC(c2ccccc2)=NN1c1ccccc1 (centres undefined)
Result block: 51

Query block: Using the record for O=C(CC(C(=O)O)N1CCOCC1)c1ccccc1 (centres undefined) , report its growth inhibition.
Result block: 43

Query block: Fill in: growth inhibition of `CC(C)(C)CC(C)(C)c1cc(O)c(O)c(CN2CCCCC2)c1` is ___
Result block: -11

Query block: Please give the measured growth inhibition for this molecule: `CN(C)CCCCN1c2ccccc2Sc2ccc(N=[N+]=[N-])cc21`
Result block: 80

Query block: Give the measured growth inhibition of `CCCCCCCCCCCC1=NCCO1` .
Result block: 53

====

The entries below are paired with their reported growth inhibition.
Assay: NCI Yeast Anticancer Drug Screen. Data for the cln2 rad14 strain (AID 165);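 note: 0% = growth equal to vehicle treated cultures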
Conditions: S. cerevisiae cln2 rad14 strain, at 50.0 µM, hits give high values
Compounds without any hit were thinned out: in the full panel of roughly 79,000, 15% have a hit.
The answer is to be given in %; state only the numeric part.

Guide cases for growth inhibition, answers given:
| COMPOUND | U | growth inhibition |
| --- | --- | --- |
| CCCCc1ccc(-n2c(C)c(COC(=O)NC)c(COC(=O)NC)c2C)cc1 | % | 81.5 |
| Oc1ccc(O)c(Cc2ccccc2)c1 | % | 97.4 |
| O=C(O)Cc1cc(F)ccc1C(=O)O | % | 94.5 |
| COC1=C(OC)C(=O)C(Sc2ccc3ccccc3c2)=CC1=O | % | 85.8 |
| O=C(CSC(=S)N1CCCCC1)Nc1nc2c(s1)CCCC2 | % | 72.2 |

Query block: Bench note: what growth inhibition did `CCCCN(CCCC)C(=O)/C=C/c1ccccc1` show?
Result block: 68

Query block: Tell me the measured growth inhibition of `CCCCCCCCCCCCNC(C)=O` , please.
Result block: 15.3

Query block: What measured growth inhibition goes with CC(C)C(C)/C=C\C(C)C1CCC2C3=CC=C4CC(O)CCC4(C)C3CCC21C (centres undefined) ?
Result block: 35.4

Query block: // query growth inhibition value for entry `CCOC(=O)/C(=C\c1ccc(C#N)cc1)C(C)=O`
Result block: 38.2

Query block: growth inhibition for `CC(C)/C(Cl)=N\OC(=O)Nc1ccc(F)cc1F` ?
Result block: 44.8

Query block: Given the compound `O=C(O)c1cc2ccccc2c2c1C(=O)c1ccccc1-2` , what is its reported growth inhibition?
Result block: 88.8

Query block: Which growth inhibition value is on record for `CCCC(=O)Oc1ccc(/C=N/NC(N)=S)nc1` ?
Result block: 11.3

Query block: What value of growth inhibition has been recorded for this entry: CCOC(=O)[C@H]1Nc2ccc(OC)cc2C2c3ccccc3CC21 (some centres undefined)
Result block: 57

Query block: Report growth inhibition for Cc1ccc2c(c1)C1(SC(C)C(=O)N1c1ccc(Cl)cc1)C(=O)N2 (centres undefined) please.
Result block: 97.7

Query block: Sample `Cc1ccccc1N=Cc1cc(Cl)ccc1O` — what was its growth inhibition?
Result block: -13.1

====

Test: NCI Yeast Anticancer Drug Screen. Data for the rad50 strain (AID 155);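 note: 0% = growth of vehicle-only cultures of the same strain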
Conditions: S. cerevisiae rad50 strain growth inhibition; at 5.0 µM (retest, dose inferred, filed as 0.5); hits give high values
Compounds without any hit were thinned out: in the full panel of roughly 79,000, 15% have a hit.
Quick reference for growth inhibition among some compounds
Give the value in % but do not write % after it.

Some compounds with recorded growth inhibition:
| COMPOUND | growth inhibition, % |
| --- | --- |
| NC(=O)C(=O)NNc1ccccc1 | 9 |
| Cc1c2cc[n+](Cc3ccc(I)cc3)cc2c(C)c2c1[nH]c1ccccc12 | 5 |
| O=[n+]1c2ccccc2n([O-])c2cc(Br)ccc21 | 96 |
| CC(O)=NC(Cc1ccc2ccccc2c1)C(O)=NC(Cc1ccc(Cl)cc1)C(O)=NC(Cc1c[nH]c2ccccc12)C(O)=NC(CO)C(O)=NC(Cc1ccc(O)cc1)C(O)=NC(CCCN=C(N)N)C(O)=NC(CC(C)C)C(O)=NC(CCCN=C(N)N)C(=O)N1CCCC1C(O)=NC(C)C(=N)O (stereo not given) | -9 |
| O=C1/C(=C/c2ccccc2)CCCC1CN1CCCCC1 (stereo not given) | 29 |
| Cc1ccc2c(c1)C1(SC(C)C(=O)N1c1ccc(Cl)cc1)C(=O)N2 (stereo not given) | 12 |

Query block: Dear colleague, I am looking for the recorded growth inhibition of the following compound: `COc1cccc(/C=N/C(/N=C/c2cccc(OC)c2O)c2cccc(OC)c2O)c1O`
Result block: 19

Query block: Field request: growth inhibition | item: N=C1N=Nc2nc(C3(c4nc5n(c4O)C(=N)N=N5)Cc4ccccc4C3=O)c(O)n21 (stereo not given)
Result block: 4

Query block: Reported growth inhibition, compound `S=c1[nH]c2cc3ccccc3cc2[nH]1` : ____
Result block: 5
